Item-by-item account of melting point

# COMPOUND, melting point
rows = [
    ("Cc1nc2ccccc2nc1SCC(=O)Nc1ccc(C(=O)NNC(=O)c2ccc([N+](=O)[O-])cc2)cc1 [Compound 31b]", "196 to 198 °C"),
]

Tell me the measured melting point of Cc1nc2ccccc2nc1SCC(=O)Nc1ccc(C(=O)Nc2ccc([N+](=O)[O-])cc2)cc1 [Compound 30h] , please.
200 to 202 °C

# lookup: melting point of Cc1nc2ccccc2n(CC(=O)Nc2ccc(C(=O)Nc3ccc([N+](=O)[O-])cc3)cc2)c1=O [Compound 27e]
> 300 °C

====

Test system: HepG2
Assay: MTT anti-proliferative assay, HepG2
Format: cell-based
Conditions: Homo sapiens, read-out: Cytotoxicity on cancer cells IC50, HepG2
IC50 vs 30 µM: less than gives condition met; not less than gives condition not met.

Use the examples below as a reference point.
# MOLECULE, GROUP_LABEL
records = [
    ("Cc1nc2ccccc2nc1SCC(=O)Nc1ccc(C(=O)Nc2ccc(Cl)cn2)cc1 [Compound 30i]", "condition met"),
    ("Cc1nc2ccccc2nc1SCC(=O)Nc1ccc(C(=O)NNC(=O)c2ccccc2)cc1 [Compound 31a]", "condition met"),
    ("Cc1nc2ccccc2n(CC(=O)Nc2ccc(C(=O)NC(C)(C)C)cc2)c1=O [Compound 27a]", "condition met"),
    ("COc1cccc(OC)c1NC(=O)c1ccc(NC(=O)CSc2nc3ccccc3nc2C)cc1 [Compound 30g]", "condition not met"),
    ("Cc1nc2ccccc2nc1SCC(=O)Nc1ccc(C(=O)NNc2ccccc2)cc1", "condition not met"),
    ("Cc1nc2ccccc2nc1SCC(=O)Nc1ccc(C(=O)NC2CCCCC2)cc1 [Compound 30b]", "condition not met"),
    ("Cc1nc2ccccc2nc1SCC(=O)Nc1ccc(C(=O)NC(C)(C)C)cc1 [Compound 30a]", "condition not met"),
    ("CNC(=O)c1cc(Oc2ccc(NC(=O)Nc3ccc(Cl)c(C(F)(F)F)c3)cc2)ccn1 [Sorafenib, reference compound]", "condition met"),
    ("COc1cccc(OC)c1NC(=O)c1ccc(NC(=O)Cn2c(=O)c(C)nc3ccccc32)cc1 [Compound 27c]", "condition not met"),
    ("Cc1nc2ccccc2n(CC(=O)Nc2ccc(C(=O)NNc3ccccc3)cc2)c1=O", "condition met"),
]

With those in mind, consider the next molecule.
Confirm or reject: IC50 of Cc1nc2ccccc2n(CC(=O)Nc2ccc(C(=O)Nc3ccc(Cl)cn3)cc2)c1=O [Compound 27f] lies strictly below 30 µM
condition met
